Sourced from the supplement of paper PMC10567573

B1: PLAGL1 (parent)
chain: LELGSTEVLLDHLKAHAEEKPPSG

# Variants of: B1
# experimentNotes: protein stability index of a GFP-peptide fusion (GPS, HEK-293T) (PSI 1-6); higher = more stable;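 further: lentivirally expressed fusions sorted by FACS into six bins by GFP to DsRed ratio, PSI derived from sequencing read proportions per bin multiplied by bin number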
# conditionContext: c terminus: a fixed tail appended
reportedMetric: protein stability index
One number for each entry.

Provide protein stability index for all items below, preserving their order.
1. S5F
2. P22W
3. D11S
4. D11Y
5. L13R

3.09
3.38
3.54
2.7
5.6

Dear reader, for each entry below, please note its protein stability index.
1. L9P
2. P21T
3. E2S
4. E7V
5. V8N
6. E18W
7. K14D
8. A15M

5.57
4.56
3.37
3.82
4.85
2.07
5.56
4.48

Quick one: give me protein stability index for each item below, same order please.
1. E7A
2. G4N
3. P22C
4. L1E

4.78
4.54
4.58
5.02

Working through the 5 variants below one at a time, give protein stability index for each.
1. T6I
2. L13Q
3. L3W
4. A17W
5. L9T

1. 3.4
2. 5.76
3. 4.49
4. 3.35
5. 5.58
